target: hSERT (Homo sapiens); assay: Drug-induced release of preloaded [3H]5-HT from HEK-hSERT cells; assay type: cell-based; settings: [3H]5-HT release
Sequence (P31645 whole entry): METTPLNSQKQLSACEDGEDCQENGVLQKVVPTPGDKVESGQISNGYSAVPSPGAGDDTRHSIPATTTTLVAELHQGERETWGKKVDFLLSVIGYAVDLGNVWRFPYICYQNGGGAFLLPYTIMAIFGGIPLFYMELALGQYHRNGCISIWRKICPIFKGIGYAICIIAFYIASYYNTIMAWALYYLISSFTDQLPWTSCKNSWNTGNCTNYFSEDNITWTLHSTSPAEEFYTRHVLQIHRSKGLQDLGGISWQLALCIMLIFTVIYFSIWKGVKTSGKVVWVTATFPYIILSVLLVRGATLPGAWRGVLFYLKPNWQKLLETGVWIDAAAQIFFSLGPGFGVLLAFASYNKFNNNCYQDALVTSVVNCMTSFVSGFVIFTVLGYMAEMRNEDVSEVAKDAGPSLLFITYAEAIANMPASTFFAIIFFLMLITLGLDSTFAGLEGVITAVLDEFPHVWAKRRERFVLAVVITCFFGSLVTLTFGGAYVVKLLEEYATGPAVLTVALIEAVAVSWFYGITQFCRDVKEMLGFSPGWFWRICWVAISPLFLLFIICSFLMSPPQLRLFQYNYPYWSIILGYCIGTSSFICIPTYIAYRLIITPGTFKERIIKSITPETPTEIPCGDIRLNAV
assay.readout: releasing efficacy at hSERT

{"columns": ["molecule", "assay.readout", "result"],
 "data": [
  ["CNC(C)Cc1ccc2occc2c1 (stereo not drawn)", "releasing efficacy at hSERT", "fully efficacious"],
  ["CNC(C)Cc1ccc2c(c1)CCO2 (stereo not drawn)", "releasing efficacy at hSERT", "fully efficacious"],
  ["CNC(C)Cc1ccc2ccoc2c1 (stereo not drawn)", "releasing efficacy at hSERT", "fully efficacious"]
]}

---

The entries below come with measured Ki values attached.
target: hNET (Homo sapiens); experiment: biochemical; type: binding; details: read-out: Inhibition of [125I]RTI-55 binding Ki ± sem, hNET
Sequence (P23975 whole entry): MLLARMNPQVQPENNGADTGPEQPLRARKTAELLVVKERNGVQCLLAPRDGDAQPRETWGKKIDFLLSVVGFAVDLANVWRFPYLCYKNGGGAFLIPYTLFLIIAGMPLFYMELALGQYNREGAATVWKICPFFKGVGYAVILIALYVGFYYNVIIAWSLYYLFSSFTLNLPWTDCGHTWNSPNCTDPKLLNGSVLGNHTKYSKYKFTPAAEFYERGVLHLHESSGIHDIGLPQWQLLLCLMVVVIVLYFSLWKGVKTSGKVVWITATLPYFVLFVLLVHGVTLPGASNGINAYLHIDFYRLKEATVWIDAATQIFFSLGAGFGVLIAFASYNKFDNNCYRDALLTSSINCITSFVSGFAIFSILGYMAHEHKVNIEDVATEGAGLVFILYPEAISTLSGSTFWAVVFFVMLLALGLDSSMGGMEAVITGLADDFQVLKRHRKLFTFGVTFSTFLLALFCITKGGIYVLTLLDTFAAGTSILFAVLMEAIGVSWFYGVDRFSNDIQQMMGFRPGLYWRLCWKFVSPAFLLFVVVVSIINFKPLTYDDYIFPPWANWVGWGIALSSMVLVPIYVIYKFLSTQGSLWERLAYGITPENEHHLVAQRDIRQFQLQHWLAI

{"columns": ["compound", "Ki, µM"],
 "data": [
  ["CCCC(C(=O)c1ccc(F)cc1)N1CCCC1 (centres unmarked)", 1.1],
  ["CNC(C)Cc1ccc2c(c1)OCO2 (centres unmarked) [MDMA, reference compound]", 15.8]
]}
